The following molecules are listed with their measured viability at 25 µM values.
Test system: PC3 spheres (cancer stem cells)
Assay: In vitro sphere-forming assay (cancer stem cells), PC3 in Prostosphere media
Conditions: read-out: % Viability of spheres (PC3), 25 uM; GCD = 100% viability
Metric name: viability at 25 µM (%)

INSERT INTO measurements (molecule, tested_system, measured_value) VALUES
  ('c1cc2c(cc1-c1ccc(OCCCCCCNC3CCCCC3)c3c1CCCC3)OCO2 [Formula XVIII]', 'PC3 spheres (cancer stem cells)', 24),
  ('c1ccc2c(-c3ccc4c(c3)OCO4)ccc(OCCCCNC3CCCCC3)c2c1 [Formula XIV]', 'PC3 spheres (cancer stem cells)', 15),
  ('O=C1OCc2c1c(-c1ccc3c(c1)OCO3)c1cc3c(cc1c2OCCCCN1CCOCC1)OCO3 [Formula XIII]', 'PC3 spheres (cancer stem cells)', 34),
  ('c1ccc2c(-c3ccc4c(c3)OCO4)ccc(OCCN3CCOCC3)c2c1 [Formula X]', 'PC3 spheres (cancer stem cells)', 33);

====

Tested on: MDAMB231 spheres (cancer stem cells)
Experiment: In vitro sphere-forming assay (cancer stem cells), MDAMB231 in Mammosphere media
Details: 0.0025 uM; 2000 cells/well; n = 6 ± S.D
Metric name: 3D sphere count of MDAMB231 in Mammosphere media

INSERT INTO results (given_smiles, measured_value) VALUES
  ('CN1CCN(CCCCOc2ccc(-c3ccc4c(c3)OCO4)c3c2CCCC3)CC1', '48(±4)'),
  ('c1ccc2c(-c3ccc4c(c3)OCO4)ccc(OCCN3CCOCC3)c2c1', '57(±5)'),
  ('O=C1OCc2c1c(-c1ccc3c(c1)OCO3)c1cc3c(cc1c2OCCCCN1CCOCC1)OCO3', '49(±3)'),
  ('O=C1OCc2c1c(-c1ccc3c(c1)OCO3)c1cc3c(cc1c2OCCN1CCOCC1)OCO3', '51(±3)'),
  ('c1cc2c(cc1-c1ccc(OCCCCCCN3CCOCC3)c3c1CCCC3)OCO2', '48(±4)'),
  ('c1ccc2c(-c3ccc4c(c3)OCO4)ccc(OCCCCN3CCOCC3)c2c1', '54(±3)'),
  ('c1cc2c(cc1-c1ccc(OCCCCCCNC3CCCCC3)c3c1CCCC3)OCO2', '54(±3)'),
  ('c1ccc2c(-c3ccc4c(c3)OCO4)ccc(OCCCCNC3CCCCC3)c2c1', '47(±3)'),
  ('O=C(CCCOc1ccc(-c2ccc3c(c2)OCO3)c2ccccc12)N1CCOCC1', '53(±2)');

====

Test system: PC3 prostate cancer cell line
Assay: In vitro antiproliferative assay (MTT assay), PC3
Type: cell-based
Details: 48 hrs drug incubation, read-out: IC50 in micromolar, PC3 (MTT assay)
Metric name: IC50 (µM)

INSERT INTO measurements (compound, tested_system, measured_value) VALUES
  ('N.N.[Cl][Pt][Cl] [Cisplatin, reference compound]', 'PC3 prostate cancer cell line', 24);

====

System: MDAMB231 spheres (cancer stem cells)
Experiment: In vitro sphere-forming assay (cancer stem cells), MDAMB231 in Mammosphere media
Conditions: 2.5 uM; 2000 cells/well; n = 6 ± S.D
Metric name: 3D sphere count of MDAMB231 in Mammosphere media

INSERT INTO assay_data (given_smiles, measured_value) VALUES
  ('Cl.c1ccc2c(-c3ccc4c(c3)OCO4)ccc(OCCCCCCN3CCOCC3)c2c1', '27(±3)'),
  ('O=C1OCc2c1c(-c1ccc3c(c1)OCO3)c1cc3c(cc1c2OCCN1CCOCC1)OCO3', '20(±3)'),
  ('C=CCNCCCCCCOc1ccc(-c2ccc3c(c2)OCO3)c2c1CCCC2', '9(±2)'),
  ('O=C1OCc2c1c(-c1ccc3c(c1)OCO3)c1cc3c(cc1c2OCCCCN1CCOCC1)OCO3', '30(±4)'),
  ('O=C(CCCOc1ccc(-c2ccc3c(c2)OCO3)c2ccccc12)N1CCOCC1', '31(±3)'),
  ('CCOC(=O)N1CCN(CCCCCCOc2c3c(c(-c4ccc5c(c4)OCO5)c4cc(OC)c(OC)cc24)C(=O)OC3)CC1', '30(±4)'),
  ('CN1CCN(CCCCOc2ccc(-c3ccc4c(c3)OCO4)c3c2CCCC3)CC1', '23(±5)');
